Recorded relative viability values for a group of compounds are listed next.
test system: NCI-H322M; experiment: relative viability (nuclei count vs DMSO), 5 days (fraction); higher = more cells survive; conditions: first compound 0.8 µM
MEASURED_METRIC: relative viability

* Nc1cccc2c1CN(C1CCC(=O)NC1=O)C2=O (configuration not stated) [Lenalidomide] + C[C@]1(O)C[C@@H](c2nc(-c3ccc4ccc(-c5ccccc5)nc4c3)c3c(N)nccn32)C1 [Linsitinib] (partner 1 µM) | 1.06
* Nc1cccc2c1CN(C1CCC(=O)NC1=O)C2=O (configuration not stated) [Lenalidomide] + N=C(N)NC(=N)NCCc1ccccc1 [Phenformin] (partner 250 µM) | 0.894
* Nc1cccc2c1CN(C1CCC(=O)NC1=O)C2=O (configuration not stated) [Lenalidomide] + Cc1nc(Nc2ncc(C(=O)Nc3c(C)cccc3Cl)s2)cc(N2CCN(CCO)CC2)n1 [Dasatinib] (partner 0.075 µM) | 0.279
* Nc1cccc2c1CN(C1CCC(=O)NC1=O)C2=O (configuration not stated) [Lenalidomide] + Cc1cc(Nc2cc(N3CCN(C)CC3)nc(Sc3ccc(NC(=O)C4CC4)cc3)n2)n[nH]1 [Tozasertib] (partner 0.1 µM) | 0.566
* Nc1cccc2c1CN(C1CCC(=O)NC1=O)C2=O (configuration not stated) [Lenalidomide] + CS(=O)(=O)CCNCc1ccc(-c2ccc3ncnc(Nc4ccc(OCc5cccc(F)c5)c(Cl)c4)c3c2)o1 [Lapatinib] (partner 2 µM) | 0.629
* Nc1cccc2c1CN(C1CCC(=O)NC1=O)C2=O (configuration not stated) [Lenalidomide] + Nc1nc2[nH]cc(CCc3ccc(C(=O)N[C@@H](CCC(=O)O)C(=O)O)cc3)c2c(=O)[nH]1 [Pemetrexed] (partner 0.2 µM) | 0.635
* Nc1cccc2c1CN(C1CCC(=O)NC1=O)C2=O (configuration not stated) [Lenalidomide] + COc1cc2c(Oc3ccc(NC(=O)C4(C(=O)Nc5ccc(F)cc5)CC4)cc3F)ccnc2cc1OCCCN1CCOCC1 [Foretinib] (partner 0.25 µM) | 1.05

* * *

Recorded relative viability values for a group of compounds are listed next.
tested on: ChaGo-K-1; test: relative viability (nuclei count vs DMSO), 5 days (fraction); higher = more cells survive; conditions: first compound 0.2 µM
MEASURED_METRIC: relative viability

* CN1CCN(CCOc2cc(OC3CCOCC3)c3c(Nc4c(Cl)ccc5c4OCO5)ncnc3c2)CC1 [Saracatinib] + O=C(CCCCCCC(=O)Nc1ccccc1)NO [Vorinostat] (partner 1 µM) | 0.55
* CCNC(=O)c1noc(-c2cc(C(C)C)c(O)cc2O)c1-c1ccc(CN2CCOCC2)cc1 [Luminespib] + COc1cc2c(Oc3ccc(NC(=O)C4(C(=O)Nc5ccc(F)cc5)CC4)cc3F)ccnc2cc1OCCCN1CCOCC1 [Foretinib] (partner 0.25 µM) | 0.299
* CN1CCN(CCOc2cc(OC3CCOCC3)c3c(Nc4c(Cl)ccc5c4OCO5)ncnc3c2)CC1 [Saracatinib] + N=C(N)NC(=N)NCCc1ccccc1 [Phenformin] (partner 250 µM) | 0.314

* * *

test system: NCI-H1650; assay: relative viability (nuclei count vs DMSO), 5 days (fraction); higher = more cells survive; settings: first compound 0.6325 µM
MEASURED_METRIC: relative viability

* CN1CCN(CCOc2cc(OC3CCOCC3)c3c(Nc4c(Cl)ccc5c4OCO5)ncnc3c2)CC1 [Saracatinib] + Cc1cc(Nc2cc(N3CCN(C)CC3)nc(Sc3ccc(NC(=O)C4CC4)cc3)n2)n[nH]1 [Tozasertib] (partner 0.1 µM) | 0.22
* Cc1csc(=NC2CCCCC2)n1/N=C/c1ccc(O)c(O)c1O [MIM1] + Nc1ncn([C@H]2C[C@H](O)[C@@H](CO)O2)c(=O)n1 [Decitabine] (partner 2 µM) | 0.448
* CN1CCN(CCOc2cc(OC3CCOCC3)c3c(Nc4c(Cl)ccc5c4OCO5)ncnc3c2)CC1 [Saracatinib] + COc1cccc2cc(-c3nc([C@H]4CC[C@H](C(=O)O)CC4)n4ncnc(N)c34)[nH]c12 [OSI-027] (partner 0.5 µM) | 0.524
* Cc1csc(=NC2CCCCC2)n1/N=C/c1ccc(O)c(O)c1O [MIM1] + CC(=O)c1c(C)c2cnc(Nc3ccc(N4CCNCC4)cn3)nc2n(C2CCCC2)c1=O [Palbociclib] (partner 0.5 µM) | 0.316
* CN1CCN(CCOc2cc(OC3CCOCC3)c3c(Nc4c(Cl)ccc5c4OCO5)ncnc3c2)CC1 [Saracatinib] + COc1cc2c(Oc3ccc(NC(=O)C4(C(=O)Nc5ccc(F)cc5)CC4)cc3F)ccnc2cc1OCCCN1CCOCC1 [Foretinib] (partner 0.25 µM) | 0.46
* Cc1csc(=NC2CCCCC2)n1/N=C/c1ccc(O)c(O)c1O [MIM1] + O=C(c1cc(Cc2n[nH]c(=O)c3ccccc23)ccc1F)N1CCN(C(=O)C2CC2)CC1 [Olaparib] (partner 8 µM) | 0.828
* Cc1csc(=NC2CCCCC2)n1/N=C/c1ccc(O)c(O)c1O [MIM1] + CC1(C)CCC(c2ccc(Cl)cc2)=C(CN2CCN(c3ccc(C(=O)NS(=O)(=O)c4ccc(N[C@H](CCN5CCOCC5)CSc5ccccc5)c(S(=O)(=O)C(F)(F)F)c4)cc3)CC2)C1 [Navitoclax] (partner 0.5 µM) | 1.18
* CN1CCN(CCOc2cc(OC3CCOCC3)c3c(Nc4c(Cl)ccc5c4OCO5)ncnc3c2)CC1 [Saracatinib] + Cc1nc(Nc2ncc(C(=O)Nc3c(C)cccc3Cl)s2)cc(N2CCN(CCO)CC2)n1 [Dasatinib] (partner 0.075 µM) | 0.359
* Cc1csc(=NC2CCCCC2)n1/N=C/c1ccc(O)c(O)c1O [MIM1] + CS(=O)(=O)N1CCN(Cc2cc3nc(-c4cccc5[nH]ncc45)nc(N4CCOCC4)c3s2)CC1 [Pictilisib] (partner 1 µM) | 0.545
